These entries and their values trace back to PubChem BioAssay.

- procedureSummary: viability loss in pontine glioma line – cell-based, SU-DIPG-IV, MIPE4.0, CellTiter-Glo, qHTS, dose response (AID 1347063);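 also: compound exposure lasted 48 hours before the viability readout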
- conditionSet: CellTiter-Glo ATP luminescence
Results filed as inconclusive are left out. Activity calls are given as the source filed them. The limit is not given here; nearly all actives have AC50 up to about 30 µM.
Assign a class; possible classes are active, inactive

These recorded examples may help you get a feel for the data.
C1Cc2[nH]nc(-c3nn[nH]n3)c2C1 :: inactive
CCC(C)CCCCC(=O)N[C@@H](CCN)C(=O)NC(C(=O)N[C@H](CCN)C(=O)N[C@@H]1CCNC(=O)C([C@@H](C)O)NC(=O)[C@@H](CCN)NC(=O)[C@@H](CCN)NC(=O)[C@@H](CC(C)C)NC(=O)[C@H](Cc2ccccc2)NC(=O)[C@H](CCN)NC1=O)[C@@H](C)O (stereo partly drawn) :: inactive
Nc1cccc2c1C(=O)N(C1CCC(=O)NC1=O)C2=O (stereo not drawn) :: inactive
C=CC(=O)Nc1cc2c(Nc3ccc(F)c(Cl)c3)ncnc2cc1C#CC(C)(C)N1CCN(C)CC1 :: active
COc1ccc(-c2ccc3ncc4c(c3c2)n(-c2ccc(N3CCNCC3)c(C(F)(F)F)c2)c(=O)n4C)cn1 :: active

Note: attention shifts to another entry.
Prompt line: What was the test verdict on c1cc(N[C@@H]2CCNC2)nc(-c2cnc3ccc(-c4cn[nH]c4)cn23)c1 ?
Response line: active
